Experiment: Approximate solubility at RT by stepwise solvent addition
Format: physicochemical
Settings: ACN, organic solvent or mixture, thermodynamic from solid, ACN, read-out: Solubility
QUANTITY_MEASURED: Solubility

Give recorded Solubility. "COCCN(CCCCc1ccc2c(n1)NCCC2)CC[C@H](Nc1ncnc2ccccc12)C(=O)O" 1900 to 6300 µg/mL

---

Assay: Approximate solubility at RT by stepwise solvent addition
Assay type: physicochemical
Conditions: IPAc, organic solvent or mixture, thermodynamic from solid, IPAc, read-out: Solubility
QUANTITY_MEASURED: Solubility

Give recorded Solubility. "COCCN(CCCCc1ccc2c(n1)NCCC2)CC[C@H](Nc1ncnc2ccccc12)C(=O)O" 2300 to 7700 µg/mL
